System: SF-539 CNS
Experimental Protocol: NCI-60 one-dose screen, 48 h
Settings: 10 µM
The panel holds about 83,000 compounds, 20% with a hit somewhere; the sample as a whole holds those more often. Active and inactive are the calls of the source. The calls were made as follows: active = growth percent below 10; inactive = the rest.
Please answer using one outcome listed in active, inactive

Here are 3 compounds together with their reported answers.
Compound: C[C@@H](O)[C@H]1C(=O)N2C(C(=O)O)=C(SCCN=CN)C[C@H]12
Category Label: active

Compound: Cc1ccc(NCCN(C)CC(C)O)c2c(=O)c3ccccc3sc12 (centres undefined)
Category Label: inactive

Compound: C1CN(CC2CCC(CN3CCOCC3)O2)CCO1 (centres undefined)
Category Label: inactive

[ask] Dear colleague, could you share the recorded outcome for CC(=O)O[C@@]12CO[C@@H]1C[C@H](O)[C@@]1(C)C(=O)[C@H](O)C3=C(C)[C@@H](OC(=O)[C@H](O)[C@@H](NC(=O)OC(C)(C)C)c4ccccc4)C[C@@](O)([C@@H](OC(=O)c4ccccc4)C12)C3(C)C (some centres undefined) when you have a moment?
[reply] inactive

====

Tested on: A498 renal
Experimental Protocol: NCI-60 one-dose screen, 48 h
Settings: 10 µM
The panel holds about 83,000 compounds, 20% with a hit somewhere; the sample as a whole holds those more often. Active and inactive are the calls of the source. Rule for the calls: active = growth percent below 10; inactive = the rest.
Please answer using one outcome listed in 1 (active), 0 (inactive)

Compound: COc1cc2cc(Oc3ccc(NC(=O)Nc4ccc(C(F)(F)F)cc4)cc3)c(C)nc2cc1OC
Category Label: 0
--
Compound: OCC1OC2C(NC(=S)N2c2ccccc2)C(O)C1O (centres undefined)
Category Label: 0
--
Compound: COC(=O)c1cc2oc(/C=C3/SC(=S)N(N)C3=O)cc2n1Cc1ccccc1
Category Label: 1
--
Compound: CNC(=O)c1cn2c3c(c(N4CCN(C)CC4)c(F)cc3c1=O)OC[C@@H]2C
Category Label: 0
--
Compound: COc1ccc(C(=O)c2cc3c(OC)c(OC)c(OC)cc3[nH]2)cc1
Category Label: 0

Now consider a different compound.
[ask] Dear colleague, could you share the recorded outcome for "CCn1c(SCCc2ccccc2)nnc1-c1nn(-c2ccc(Cl)cc2Cl)c(-c2ccc(Cl)cc2)c1C" when you have a moment?
[reply] 0

====

Test system: OVCAR-8 ovarian
Experimental Protocol: NCI-60 one-dose screen, 48 h (100 = growth as untreated, 0 = no growth, -100 = all killed)
Settings: 10 µM
Compounds without any hit were thinned out: in the full panel of roughly 83,000, 20% have a hit. Calls of active or inactive are those of the source. Rule for the calls: active = growth percent below 10; inactive = the rest.
Readout: growth

These solved cases illustrate the format of a correct answer.
Compound: N=C1S/C(=C/c2ccc(-c3ccc4c(c3)C(=O)NC4=O)o2)C(=O)N1c1ccc(Br)cc1
growth: 37.8% (inactive)
//
Compound: CC(CN(C)C)Oc1ccccc1NC1=C(Cl)C(=O)C(Nc2ccccc2OC(C)CN(C)C)=C(Cl)C1=O (configuration not stated)
growth: -85.3% (active)
//
Compound: CC1CCCC(C(=O)O)C1C(=O)O (configuration not stated)
growth: 94.4% (inactive)
//
Compound: CC(C)(C)c1ccc(S(=O)(=O)N[C@H]2CC[C@H]3[C@@H]4CCc5cc(O)ccc5[C@H]4CC[C@]23C)cc1
growth: 50% (inactive)
//
Compound: COc1ccc(C(=O)N/N=C/c2cc(C(F)(F)F)ccc2Cl)cc1
growth: 102% (inactive)
//
Compound: CCCN(CCC)C(=O)[C@H](CC)[C@@H]1CC[C@@H](C)[C@@H]([C@H](C)[C@@H](O)[C@@H](C)C(=O)[C@H](CC)C2O[C@]3(C=C[C@@H](O)[C@]4(CC[C@@](C)([C@H]5CC[C@](O)(CC)[C@H](C)O5)O4)O3)[C@H](C)C[C@@H]2C)O1 (some centres not stated)
growth: 15% (inactive)

With those in mind, consider the next compound.
[ask] What growth value was documented for this compound, CC1/C=C/C=C/C=C/C=C/C=C/C=C/C=C/C(O[C@@H]2O[C@H](C)[C@H](O)[C@@H](O)[C@@H]2N)CC(O)C(C(=O)O)C(O)CC(=O)CC(O)CC(O)CC(O)CC(=O)CCCC(=O)CC(=O)OC1C(C)CC(C)C(O)CC(=O)c1ccc(N)cc1 (some centres not stated) ?
[reply] -97.5% (active)

====

Test system: NCI-H460 lung
Experimental Protocol: NCI-60 one-dose screen, 48 h (100 = growth as untreated, 0 = no growth, -100 = all killed)
Settings: 10 µM
The panel holds about 83,000 compounds, 20% with a hit somewhere; the sample as a whole holds those more often.
Readout: growth (%)
Give just the number in %; leave the unit off.

These solved cases illustrate the format of a correct answer.
Compound: CN(C)CCCOc1ccc(OCCCN(C)C)c2c1C(=O)c1ccccc1C2=O
Result Units: %
growth: 0.0676

Compound: CCOC(=O)/C(=C(\C)N)C1CC(=O)NC1=O (centres undefined)
Result Units: %
growth: 101

Compound: Fc1ccc2[nH]cc(-c3nc(-c4ccsc4)cs3)c2c1
Result Units: %
growth: 121

Compound: NC(N)=N/N=C(\N=Nc1ccccc1)c1ccc(Cl)cc1
Result Units: %
growth: 40

[ask] What growth value was documented for this compound, "C=CCn1c(SCC(=O)Nc2ccc(C(=O)/C=C/c3ccc(OC)cc3)cc2)nnc1-c1ccc(OC)c(OC)c1" ?
[reply] 91.7

[ask] What growth value was documented for this compound, CC[C@@H](C(=O)[C@H](C)[C@H](O)[C@@H](C)[C@H]1O[C@H]([C@@H](CC)C(=O)O)CC[C@H]1C)C1O[C@]2(C=C[C@@H](O)[C@]3(CC[C@@](C)([C@H]4CC[C@](O)(CC)[C@H](C)O4)O3)O2)[C@H](C)C[C@@H]1C (some centres undefined) ?
[reply] 11.4

[ask] What growth value was documented for this compound, "CCOC(=O)CN(c1sc(C)c(C)c1C(=O)OCC)S(=O)(=O)c1ccc(C)cc1" ?
[reply] 98

[ask] What growth value was documented for this compound, COc1cc(/C=C2\CCCC3=C2NC(N)=NC3c2cc(OC)c(OC)c(OC)c2)cc(OC)c1OC (centres undefined) ?
[reply] -42.6

[ask] What growth value was documented for this compound, "N#CCc1csc(Cc2ccccc2)n1" ?
[reply] 102

====

growth listing for selected compounds.
Tested on: SF-539 CNS
Experimental Protocol: NCI-60 one-dose screen, 48 h (100 = growth as untreated, 0 = no growth, -100 = all killed)
Settings: 10 µM
Compounds without any hit were thinned out: in the full panel of roughly 83,000, 20% have a hit.
Give just the number in %; leave the unit off.

These solved cases illustrate the format of a correct answer.
Compound: COc1cccc(C2C(C#N)=C(N)Oc3cc(N)ccc32)c1 (centres undefined)
System: SF-539 CNS
Readout: growth
Numeric Value: 4.8
//
Compound: COc1cc(C(=O)/C(C)=C/c2c[nH]c3ccccc23)cc(OC)c1OC
System: SF-539 CNS
Readout: growth
Numeric Value: -3.72
//
Compound: COc1cc(/C=C2\CCCC3C2=Nc2ccccc2NC3c2cc(OC)c(OC)c(OC)c2)cc(OC)c1OC (centres undefined)
System: SF-539 CNS
Readout: growth
Numeric Value: 35.2
//
Compound: COc1ccc(C(=O)c2ccccc2CN2C(=O)c3ccccc3C2=O)cc1
System: SF-539 CNS
Readout: growth
Numeric Value: 108
//
Compound: COc1cc(-c2csc(NC(=O)Nc3ccc(Cl)c(C(F)(F)F)c3)n2)cc(OC)c1OC
System: SF-539 CNS
Readout: growth
Numeric Value: 5.05
//
Compound: O=C(CCc1nnc2sc(-c3cc(O)c(O)c(O)c3)nn12)c1nc2ccccc2[nH]1
System: SF-539 CNS
Readout: growth
Numeric Value: 80

[ask] // map "CCc1c2c(nc3ccc(OC(=O)N4CCC(N5CCCCC5)CC4)cc13)-c1cc3c(c(=O)n1C2)COC(=O)[C@]3(O)CC" to recorded growth (system: SF-539 CNS)
[reply] -22.1

[ask] // map "CC(C)(C)c1ccc(S(=O)(=O)N[C@H]2CC[C@H]3[C@@H]4CCc5cc(OS(=O)(=O)O)ccc5[C@H]4CC[C@]23C)cc1" to recorded growth (system: SF-539 CNS)
[reply] 82.4

[ask] // map "CC(=O)COc1ccc(Cl)cc1Cl" to recorded growth (system: SF-539 CNS)
[reply] 114

====

Tested on: SNB-75 CNS
Experimental Protocol: NCI-60 one-dose screen, 48 h (100 = growth as untreated, 0 = no growth, -100 = all killed)
Settings: 10 µM
About 83,000 compounds went through this panel and 20% of them were active in at least one assay; those are over-represented in the sample as a whole.
Cut-off 80% on growth, inclusive. At or above means yes (1); below means no (0).

Compound: Cc1c(O)c(=O)ccn1C1CCC(CC2CCC(n3ccc(=O)c(O)c3C)CC2)CC1 (stereo not given)
Category Label: no (0)
//
Compound: COc1ccc(/C(C#N)=C/c2cccc(OC)c2OC)cc1
Category Label: yes (1)
//
Compound: Cc1cc(Br)nnc1Br
Category Label: no (0)

Now consider a different compound.
[ask] Evaluate "CC(C)(C)OC(=O)N1CCc2c(sc3ncnc(N/N=C/c4cccc(Br)c4)c23)C1" : growth at minimum 80%?
[reply] no (0)
